Hey, just so you know, these numbers are from ChEMBL document CHEMBL2218924.

Biological target: Activated CDC42 kinase 1 (Homo sapiens) (UniProt Q07912)
Sequence (Q07912 whole entry, looked up): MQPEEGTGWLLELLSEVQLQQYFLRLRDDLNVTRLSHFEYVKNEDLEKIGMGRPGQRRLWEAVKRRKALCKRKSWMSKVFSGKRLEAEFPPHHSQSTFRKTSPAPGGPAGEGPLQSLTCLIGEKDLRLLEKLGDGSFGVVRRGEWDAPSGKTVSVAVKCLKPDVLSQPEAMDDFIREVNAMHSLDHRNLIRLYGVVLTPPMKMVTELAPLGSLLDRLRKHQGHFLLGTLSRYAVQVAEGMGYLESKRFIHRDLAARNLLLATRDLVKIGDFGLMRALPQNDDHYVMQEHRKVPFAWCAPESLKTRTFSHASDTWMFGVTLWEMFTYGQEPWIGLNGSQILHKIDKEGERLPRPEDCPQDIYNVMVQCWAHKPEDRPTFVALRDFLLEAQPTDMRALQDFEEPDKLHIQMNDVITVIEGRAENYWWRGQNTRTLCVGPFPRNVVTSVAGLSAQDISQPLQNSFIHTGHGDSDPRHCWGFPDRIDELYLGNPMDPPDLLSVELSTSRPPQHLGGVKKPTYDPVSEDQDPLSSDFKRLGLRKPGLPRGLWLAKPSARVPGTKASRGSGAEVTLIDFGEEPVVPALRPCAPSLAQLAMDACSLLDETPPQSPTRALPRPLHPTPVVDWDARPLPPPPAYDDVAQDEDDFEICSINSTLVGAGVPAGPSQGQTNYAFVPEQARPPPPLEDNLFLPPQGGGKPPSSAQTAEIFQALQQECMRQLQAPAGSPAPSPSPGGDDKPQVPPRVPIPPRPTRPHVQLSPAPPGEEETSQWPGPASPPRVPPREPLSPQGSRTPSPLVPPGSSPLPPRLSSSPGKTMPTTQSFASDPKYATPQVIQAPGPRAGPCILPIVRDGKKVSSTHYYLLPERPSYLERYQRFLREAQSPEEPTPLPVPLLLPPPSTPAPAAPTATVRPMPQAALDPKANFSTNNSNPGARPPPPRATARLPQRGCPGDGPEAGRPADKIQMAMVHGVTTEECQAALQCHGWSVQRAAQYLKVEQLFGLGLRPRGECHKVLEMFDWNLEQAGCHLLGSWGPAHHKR
Conditions: at 1 µM
Please assign no (0) whenever residual activity is at or above 40%, and yes (1) whenever it is below.

Below are worked cases with known answers.
Exercise: Bench note: check whether O=C1NC(=O)c2c1c1c3ccccc3[nH]c1n1cncc21 shows residual activity below 40%
Key: yes (1)

Exercise: Bench note: check whether CCCCc1c(-c2ccc(OC)cc2)[nH]c2nccnc12 shows residual activity below 40%
Key: yes (1)

Exercise: Bench note: check whether COc1cc2ncnc(Nc3cccc(Cl)c3)c2cc1OC shows residual activity below 40%
Key: yes (1)

Further cases:
Exercise: Bench note: check whether CCCCc1c(-c2ccc(O)cc2)[nH]c2nccnc12 shows residual activity below 40%
Key: yes (1)

Exercise: Bench note: check whether Cn1sc(=O)n(Cc2ccccc2)c1=O shows residual activity below 40%
Key: no (0)

Exercise: Bench note: check whether O=C1NC(=O)C(c2cn(CCCn3ccnc3)c3ccccc23)=C1Nc1ccccc1 shows residual activity below 40%
Key: no (0)

---

Molecular target: Serine/threonine-protein kinase BRSK1 (Homo sapiens)
Sequence (whole entry): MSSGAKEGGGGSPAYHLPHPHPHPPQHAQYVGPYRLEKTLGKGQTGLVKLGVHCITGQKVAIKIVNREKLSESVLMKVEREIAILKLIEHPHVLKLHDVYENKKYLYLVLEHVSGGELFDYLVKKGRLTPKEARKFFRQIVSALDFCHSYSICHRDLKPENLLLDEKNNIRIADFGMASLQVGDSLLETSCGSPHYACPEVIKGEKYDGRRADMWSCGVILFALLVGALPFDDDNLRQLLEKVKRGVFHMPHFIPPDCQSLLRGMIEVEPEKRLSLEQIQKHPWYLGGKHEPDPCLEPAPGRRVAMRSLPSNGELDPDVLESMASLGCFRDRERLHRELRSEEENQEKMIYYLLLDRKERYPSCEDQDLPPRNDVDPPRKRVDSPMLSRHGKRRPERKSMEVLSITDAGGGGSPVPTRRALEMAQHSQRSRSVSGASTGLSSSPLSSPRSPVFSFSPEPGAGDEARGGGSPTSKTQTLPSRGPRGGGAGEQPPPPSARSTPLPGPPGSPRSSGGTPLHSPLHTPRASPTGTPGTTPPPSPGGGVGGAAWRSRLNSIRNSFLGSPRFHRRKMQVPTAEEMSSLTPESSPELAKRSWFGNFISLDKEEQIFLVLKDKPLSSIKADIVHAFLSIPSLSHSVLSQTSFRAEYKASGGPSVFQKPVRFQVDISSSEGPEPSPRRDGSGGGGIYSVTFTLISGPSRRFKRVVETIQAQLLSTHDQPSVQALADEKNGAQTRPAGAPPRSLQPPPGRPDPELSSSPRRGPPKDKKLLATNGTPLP
Details: at 10 µM
Entries and their residual activity values follow.
Give the quantity in %, number only.

Worked cases, residual activity given:
Exercise: Tell me its residual activity on Serine/threonine-protein kinase BRSK1 (Homo sapiens): O=c1cc(N2CCNCC2)oc2c(-c3ccccc3)cccc12
Key: 74

Exercise: Tell me its residual activity on Serine/threonine-protein kinase BRSK1 (Homo sapiens): O=S(=O)(NCCNC/C=C/c1ccc(Br)cc1)c1cccc2cnccc12
Key: 53

Exercise: Tell me its residual activity on Serine/threonine-protein kinase BRSK1 (Homo sapiens): O=C1Nc2ccccc2/C1=C\c1c(Cl)[nH]c2ccccc12
Key: 46

Exercise: Tell me its residual activity on Serine/threonine-protein kinase BRSK1 (Homo sapiens): O=C1NC(=O)C(c2cn(CCCO)c3ncccc23)=C1c1cnccn1
Key: 84

Exercise: Tell me its residual activity on Serine/threonine-protein kinase BRSK1 (Homo sapiens): COc1ccc(Cl)cc1NC(=O)Nc1cc(C)nc2ccccc12
Key: 64

Further cases:
Exercise: Tell me its residual activity on Serine/threonine-protein kinase BRSK1 (Homo sapiens): O=C1NC(=O)C(c2c[nH]c3ccccc23)=C1c1c[nH]c2ccccc12
Key: 35

Exercise: Tell me its residual activity on Serine/threonine-protein kinase BRSK1 (Homo sapiens): Nc1ncnc2c1cnn2-c1ccccc1
Key: 23

Exercise: Tell me its residual activity on Serine/threonine-protein kinase BRSK1 (Homo sapiens): COc1ccc2c(c1)c(C1=C(c3c[nH]c4ccccc34)C(=O)NC1=O)cn2CCCN(C)C
Key: 48

Exercise: Tell me its residual activity on Serine/threonine-protein kinase BRSK1 (Homo sapiens): O=C(Nc1ccc(Cl)cc1)c1ccccc1NCc1ccncc1
Key: 126

Exercise: Tell me its residual activity on Serine/threonine-protein kinase BRSK1 (Homo sapiens): Cc1cc(C)c(/C=C2\C(=O)Nc3ccccc32)[nH]1
Key: 57

Exercise: Tell me its residual activity on Serine/threonine-protein kinase BRSK1 (Homo sapiens): CCN(CC)CCNC(=O)c1c(C)[nH]c(/C=C2\C(=O)Nc3ccc(Cl)cc32)c1C
Key: 9
